All figures here come from patent US20170362324A1.

- study_target: T1, human αvβ5 expressed on BaF3 cells (stably transfected with human αv and β5 subunits) (human, UniProt P06756 31-1048; P18084 24-799)
- T1 construct: also called αvβ5-BaF3; BaF3-hu αvβ5
- T1 sequence (P06756 31-1048 limits assumed, chain 1 of 2): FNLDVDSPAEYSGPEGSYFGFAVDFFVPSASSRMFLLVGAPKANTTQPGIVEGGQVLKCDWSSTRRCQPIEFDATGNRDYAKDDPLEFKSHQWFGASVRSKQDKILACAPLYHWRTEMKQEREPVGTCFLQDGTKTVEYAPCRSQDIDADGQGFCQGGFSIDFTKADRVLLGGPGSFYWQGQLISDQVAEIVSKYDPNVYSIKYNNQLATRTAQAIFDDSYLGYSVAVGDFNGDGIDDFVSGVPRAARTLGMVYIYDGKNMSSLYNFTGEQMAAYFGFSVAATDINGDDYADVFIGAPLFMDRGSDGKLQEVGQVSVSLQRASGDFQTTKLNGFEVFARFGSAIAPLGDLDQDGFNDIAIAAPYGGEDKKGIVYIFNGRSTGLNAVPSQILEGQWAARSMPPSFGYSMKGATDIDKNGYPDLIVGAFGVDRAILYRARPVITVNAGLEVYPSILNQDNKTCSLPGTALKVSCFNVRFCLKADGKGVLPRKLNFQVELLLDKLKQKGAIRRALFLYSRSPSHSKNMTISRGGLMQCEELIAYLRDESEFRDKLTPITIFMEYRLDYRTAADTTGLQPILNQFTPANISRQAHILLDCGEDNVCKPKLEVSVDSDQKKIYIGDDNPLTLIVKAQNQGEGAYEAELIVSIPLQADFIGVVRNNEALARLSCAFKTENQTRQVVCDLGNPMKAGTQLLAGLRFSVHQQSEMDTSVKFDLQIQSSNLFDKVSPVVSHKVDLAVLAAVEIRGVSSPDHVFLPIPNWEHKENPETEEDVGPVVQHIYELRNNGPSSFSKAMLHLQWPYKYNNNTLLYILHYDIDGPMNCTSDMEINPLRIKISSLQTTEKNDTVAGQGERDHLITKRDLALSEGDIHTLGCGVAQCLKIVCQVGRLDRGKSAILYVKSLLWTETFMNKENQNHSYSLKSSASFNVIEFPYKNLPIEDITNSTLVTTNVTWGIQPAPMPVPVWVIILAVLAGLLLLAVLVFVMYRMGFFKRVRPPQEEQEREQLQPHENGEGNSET
- T1 sequence (P18084 24-799 limits assumed, chain 2 of 2): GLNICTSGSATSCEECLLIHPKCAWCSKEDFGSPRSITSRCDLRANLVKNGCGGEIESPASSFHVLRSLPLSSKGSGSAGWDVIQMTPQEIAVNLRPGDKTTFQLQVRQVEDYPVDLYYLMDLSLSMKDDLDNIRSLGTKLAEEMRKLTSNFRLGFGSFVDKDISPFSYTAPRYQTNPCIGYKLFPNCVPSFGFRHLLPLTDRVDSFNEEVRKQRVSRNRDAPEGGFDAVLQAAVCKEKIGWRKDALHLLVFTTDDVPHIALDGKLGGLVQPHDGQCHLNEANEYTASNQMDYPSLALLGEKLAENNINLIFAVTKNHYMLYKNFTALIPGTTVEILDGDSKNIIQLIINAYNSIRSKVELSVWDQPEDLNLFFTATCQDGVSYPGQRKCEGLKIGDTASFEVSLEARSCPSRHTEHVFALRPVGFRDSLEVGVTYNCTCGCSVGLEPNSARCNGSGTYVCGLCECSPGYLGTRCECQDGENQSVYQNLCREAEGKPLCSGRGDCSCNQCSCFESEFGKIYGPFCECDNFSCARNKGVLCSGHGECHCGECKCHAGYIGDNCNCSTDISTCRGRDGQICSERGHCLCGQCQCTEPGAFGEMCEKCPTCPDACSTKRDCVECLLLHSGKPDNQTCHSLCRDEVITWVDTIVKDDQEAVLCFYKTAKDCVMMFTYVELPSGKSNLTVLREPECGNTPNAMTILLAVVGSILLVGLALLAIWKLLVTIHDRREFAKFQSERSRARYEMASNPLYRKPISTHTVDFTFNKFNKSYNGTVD
- experiment_summary: FACS on αvβ5-BaF3 cells, unpurified antibody
EC50 values for the binders below.

INSERT INTO measurements (binder, readout_kind, experimental_value) VALUES
  ('VH4/VL0 Agly-hIgG1(T299A) (antibody, V domains shown, also called H4/L0 (Agly-IgG1)) VH: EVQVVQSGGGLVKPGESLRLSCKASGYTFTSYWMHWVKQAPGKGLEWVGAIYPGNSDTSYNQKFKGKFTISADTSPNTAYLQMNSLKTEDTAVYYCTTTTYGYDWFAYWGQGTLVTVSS VL: DIQMTQSPSSVSASVGDRVTITCKSSQSVLYSSNQKNYLAWYQQKPGKAPKLLIYWASTRESGVPSRFSGSGSGTDFTLTISSLQPEDFATYYCHQYLSSLTFGQGTKVEIK', 'EC50', '158 nM'),
  ('VH2/VL1 Agly-hIgG1(T299A) (antibody, V domains shown, also called H2/L1) VH: EVQVVQSGGGLVKPGESLRLSCAASGYTFTSYWMHWVKQAPGKGLEWVGAIYPGNSDTSYNQKFKGKFTISADTSSNTAYLQMNSLKTEDTAVYYCTTTTYGYDWFAYWGQGTLVTVSS VL: DIQMTQSPSSLSASVGDRVTMTCKSSQSVLYSSNQKNYLAWYQQKPGKAPKLLIYWASTRESGVPDRFSGSGSGTDFTLTISSLQPEDFATYYCHQYLSSLTFGQGTKLEIK', 'EC50', '405 nM'),
  ('VH0/VL1 Agly-hIgG1(T299A) (antibody, V domains shown, also called H0/L1) VH: EVQLVESGGGLVKPGGSLRLSCAASGYTFTSYWMHWVRQAPGKGLEWVGAIYPGNSDTSYNQKFKGRFTISRDDSKNTLYLQMNSLKTEDTAVYYCTTTTYGYDWFAYWGQGTLVTVSS VL: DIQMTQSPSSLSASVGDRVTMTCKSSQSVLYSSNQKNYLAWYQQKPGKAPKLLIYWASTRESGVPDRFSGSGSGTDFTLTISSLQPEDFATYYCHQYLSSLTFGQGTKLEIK', 'EC50', '798 nM'),
  ('VH5/VL2 Agly-hIgG1(T299A) (antibody, V domains shown, also called H5/L2 (Agly-IgG1)) VH: EVQVQQSGGGLVKPGGSLRLSCKASGYTFTSYWMHWVKQAPGKGLEWVGAIYPGNSDTSYNQKFKGKATLSAVTSPNTAYLQMNSLKTEDTAVYYCTTTTYGYDWFAYWGQGTLVTVSS VL: NIQMTQSPSSLSASVGDRVTMSCKSSQSVLYSSNQKNYLAWYQQKPGKSPKLLIYWASTRESGVPDRFTGSGSGTDFTLTISSLQPEDFATYYCHQYLSSLTFGQGTKLEIK', 'EC50', '359 nM');

Then there is this binder:
Record summary for VH0/VL3 Agly-hIgG1(T299A) (antibody, V domains shown, also called H0/L3) VH: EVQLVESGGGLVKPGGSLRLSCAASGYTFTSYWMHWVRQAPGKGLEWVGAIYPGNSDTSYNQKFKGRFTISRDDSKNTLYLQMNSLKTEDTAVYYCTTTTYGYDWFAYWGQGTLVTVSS VL: DIQMTQSPSSLTVSVGDRVTMSCKSSQSVLYSSNQKNYLAWYQQKPGKSPKLLIYWASTRESGVPDRFTGSGSGTDFTLTISSVQPEDFATYYCHQYLSSLTFGAGTKLEIK : reported EC50 = 1270 nM
